Reference source: patent US20120045393A1

- targetOrTestSystem: LHRH receptor (LHRH binding sites) on EFO-27 human ovarian cancer cells (human)
- assayRemarks: competition with [125I-Tyr8]BRU-2477 for binding to EFO-27 cells
Measured EC50 accompanies every entry in the list below.
Give the number; µM is assumed, so skip it.

Query: Quick one: EC50 for GXHWSHXWXPX (as printed: DO3A10CM-Gly-Sar-His-Trp-Ser-His-Darg-Trp-Bpa4-Pro-azaGly-NH2 (Gly is the linker)) [BRU-2717] ?
Response: 1.53

Query: Please do the same for XRWSHXWXP (as printed: Sar-R-W-S-H-Darg-W-Bpa4-P-Da18o36oc-DO3A10CM (C-terminal chelator)) [BRU-3043] as well.
Response: 0.33

Query: Please do the same for XRWSHXWXP (as printed: Sar-R-W-S-H-Darg-W-Bpa4-P-Dabt14-DO3A10CM (C-terminal chelator)) [BRU-3041] as well.
Response: 0.36

Query: Please do the same for XHWSHXWXP (as printed: Sar-H-W-S-H-Darg-W-Bpa4-P-Dae-DO3A10CM (C-terminal chelator)) [BRU-3079] as well.
Response: 0.59

Query: Please do the same for XHWSHXWXPX (as printed: DO3A10CM-Dnal1-His-Trp-Ser-His-Darg-Trp-Bpa4-Pro-azaGly-NH2) [BRU-2869] as well.
Response: 0.36

Query: Please do the same for XRWSHXWXP (as printed: Sar-R-W-S-H-Darg-W-Bpa4-P-Dapt15-DO3A10CM (C-terminal chelator)) [BRU-3085] as well.
Response: 0.4

Query: Please do the same for XRWSHXWXP (as printed: Ac-Dnal2-R-W-S-H-Darg-W-Bpa4-P-Da15o3pt-DO3A10CM (N-acetyl; C-terminal chelator)) [BRU-2992] as well.
Response: 0.47

Query: Please do the same for XHWSHXWXPX (as printed: DO3A10CM-Sar-His-Trp-Ser-His-Darg-Trp-Bpa4-Pro-azaGly-NH2) [BRU-2443] as well.
Response: 0.95

Query: Please do the same for XHWSHXWXPX (as printed: DO3A10CM-Adoa-Adoa-Sar-His-Trp-Ser-His-Darg-Trp-Bpa4-Pro-azaGly-NH2 (Adoa-Adoa is the linker)) [BRU-2896] as well.
Response: 3.2

Query: Please do the same for XRWSHXWXPG (as printed: Dnal2-R-W-S-H-Darg-W-Bpa4-P-G-Dabt14-DO3A10CM (C-terminal chelator)) [BRU-2990] as well.
Response: 30.2

Query: Please do the same for XRWSHXWXP (as printed: Sar-R-W-S-H-Darg-W-Bpa4-P-Dae-DO3A10CM (C-terminal chelator)) [BRU-3103] as well.
Response: 0.17

Query: Please do the same for XRWSHXWXP (as printed: Sar-R-W-S-H-Darg-W-Bpa4-P-Ampip2-DO3A10CM (C-terminal chelator)) [BRU-3102] as well.
Response: 0.2

Query: Please do the same for XRWSHXWX (as printed: Sar-R-W-S-H-Darg-W-Bpa4-Am2prd-DO3A10CM (C-terminal chelator)) [BRU-3117] as well.
Response: 0.34

Query: Please do the same for GHWSHXWXPX (as printed: DO3A10CM-Gly-His-Trp-Ser-His-Darg-Trp-Bpa4-Pro-azaGly-NH2 (Gly is AA1)) [BRU-2733] as well.
Response: 1.18

Query: Please do the same for XXRWSHXWXPX (as printed: DO3A10CM-Dap-Dnal2-Arg-Trp-Ser-His-Darg-Trp-Bpa4-Pro-azaGly-NH2 (Dap is the linker)) [BRU-3096] as well.
Response: 0.37

Query: Please do the same for KXRWSHXWXPX (as printed: DO3A10CM-Lys-Dnal2-Arg-Trp-Ser-His-Darg-Trp-Bpa4-Pro-azaGly-NH2 (Lys is the linker)) [BRU-3097] as well.
Response: 0.45
